Just for reference, paper PMC10202811 is where these values come from.

# assay.overview: Plasma pharmacokinetics of lorlatinib at steady state (LC-MS/MS, non-compartmental analysis)
# Type: in vivo, human
# condition.summary: Cycle 1 Day 1; Cohort A2; 150 mg per dose; individual patients; unit assumed
measurement.name: Tlag (h)

{"compound.structure": "C[C@H]1Oc2cc(cnc2N)-c2c(nn(C)c2C#N)CN(C)C(=O)c2ccc(F)cc21", "measurement.name": "Tlag", "endpoint.unit": "h", "obs.value": 0}

====

# assay.overview: Plasma pharmacokinetics of lorlatinib at steady state (LC-MS/MS, non-compartmental analysis)
# Assay type: in vivo, human
# condition.summary: human, in vivo, 115 mg/m2, Cycle 1 Day 15; Cohort A1; 115 mg/m2 per dose; individual patients; read-out: AUCINF_pred

{"compound.structure": "C[C@H]1Oc2cc(cnc2N)-c2c(nn(C)c2C#N)CN(C)C(=O)c2ccc(F)cc21", "AUC(0-inf), ng·h/mL": 10700}
